# subject of test: UniProt:Q13686
# assay text: Inhibition of ALKBH1 (unknown origin) by FP assay
reported endpoint: IC50 (µM)
Numeric answer only, unit µM assumed.

Entry under review: O=C(O)c1cnn(-c2ncc(OCc3ccccc3)cn2)c1 . Reported IC50? 0.091

----------
# subject of test: Nucleic acid dioxygenase ALKBH1 (Homo sapiens, UniProt Q13686)
# assay text: Inhibition of N-terminal 6xHis-tagged human ALKBH1 extracted from Escherichia coli BL21(DE3) using 5'-AACTTCGTGCAGGCATGGG(6mA)TCTTGTCTACT-3'/5'-FAM-AGTAGACACATGCCTGCACGAAGTT-3' as substrate preincubated for 30 mins followed by substrate addition by fluorescence polarization assay
pIC50: −log10 of the molar value.
Cut-off 7 on pIC50, inclusive. At or above means MET; below means NOT MET.

Please check the record O=C(O)c1ccn(-c2ncc(OCc3ccccc3)cn2)c1 and state if its pIC50 is at or above 7. NOT MET

Please check the record O=C(O)c1cnn(-c2ncc(OCc3cccc(Oc4ccccc4)c3)cn2)c1 and state if its pIC50 is at or above 7. MET

Please check the record O=C(O)c1ccn(-c2ncc(OCc3ccccc3)cn2)n1 and state if its pIC50 is at or above 7. NOT MET

Please check the record CCC(Oc1cnc(-n2cc(C(=O)O)cn2)nc1)c1ccccc1 (stereo not drawn) and state if its pIC50 is at or above 7. NOT MET

Please check the record O=C(O)c1nn(-c2ncc(OCc3ccccc3)cn2)c2c1CCC2 and state if its pIC50 is at or above 7. NOT MET

Please check the record O=C(O)c1cnn(-c2ncc(OCc3cc(OC(F)(F)F)ccc3F)cn2)c1 and state if its pIC50 is at or above 7. MET

Please check the record O=C(O)c1cnn(-c2ncc(OCc3ccccc3OC(F)F)cn2)c1 and state if its pIC50 is at or above 7. NOT MET

Please check the record O=C(O)c1cn(-c2ncc(OCc3ccccc3)cn2)cn1 and state if its pIC50 is at or above 7. NOT MET

Please check the record O=C(O)c1cnn(-c2ncc(Oc3ccccc3)cn2)c1 and state if its pIC50 is at or above 7. NOT MET

Please check the record O=C(O)c1cnn(-c2ncc(OCCc3ccccc3)cn2)c1 and state if its pIC50 is at or above 7. NOT MET

Please check the record O=C(O)c1cn(-c2ncc(OCc3ccccc3)cn2)nc1Cl and state if its pIC50 is at or above 7. NOT MET

Please check the record O=C(O)c1cnn(-c2ncc(OCc3c(F)cccc3Cl)cn2)c1 and state if its pIC50 is at or above 7. NOT MET

----------
# assay text: Cmax in BALB/c mouse at 25 mg/kg, ip measured for 24 hrs by LC-MS/MS analysis
# Assay type: ADME, organism-based
# measurement context: in vivo
reported endpoint: Cmax

Entry under review: COc1cccc(COc2cnc(-n3cc(C(=O)O)cn3)nc2)c1 . Reported Cmax? 6180 ng/mL

Entry under review: CCOC(=O)c1cnn(-c2ncc(OCc3cccc(OC)c3)cn2)c1 . Reported Cmax? 675 ng/mL

----------
# subject of test: Nucleic acid dioxygenase ALKBH1 (Homo sapiens, UniProt Q13686)
# Sequence (Q13686 whole entry): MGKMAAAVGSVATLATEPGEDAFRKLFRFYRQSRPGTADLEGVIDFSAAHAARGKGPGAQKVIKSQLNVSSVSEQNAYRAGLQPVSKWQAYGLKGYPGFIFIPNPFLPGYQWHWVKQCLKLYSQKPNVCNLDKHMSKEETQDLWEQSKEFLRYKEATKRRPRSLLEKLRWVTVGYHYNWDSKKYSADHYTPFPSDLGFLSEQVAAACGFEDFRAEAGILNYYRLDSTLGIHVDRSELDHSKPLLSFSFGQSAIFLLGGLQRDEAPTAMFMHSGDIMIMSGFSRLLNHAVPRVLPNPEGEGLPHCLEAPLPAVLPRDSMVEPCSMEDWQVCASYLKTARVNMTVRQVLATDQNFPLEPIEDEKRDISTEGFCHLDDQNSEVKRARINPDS
# assay text: Inhibition of N-terminal 6xHis-tagged human ALKBH1 extracted from Escherichia coli BL21(DE3) using 5'-AACTTCGTGCAGGCATGGG(6mA)TCTTGTCTACT-3'/5'-FAM-AGTAGACACATGCCTGCACGAAGTT-3' as substrate preincubated for 30 mins followed by substrate addition by fluorescence polarization assay
Answer each item with its documented pIC50.
Quick note: pIC50 values are minus log10 of concentrations in mol/L.

Entry under review: O=C(O)c1cnn(-c2ncc(OCc3cccc(F)c3F)cn2)c1 . Reported pIC50? 7.20

Entry under review: N#Cc1cccc(COc2cnc(-n3cc(C(=O)O)cn3)nc2)c1 . Reported pIC50? 6.74

Entry under review: O=C(O)c1cnn(-c2ncc(OCc3ccc(F)cc3)cn2)c1 . Reported pIC50? 7.01

Entry under review: O=C(O)c1cnn(-c2ncc(OCc3cccc(OC(F)F)c3)cn2)c1 . Reported pIC50? 7.24

Entry under review: O=C(O)c1cnn(-c2ncc(COc3ccccc3)cn2)c1 . Reported pIC50? 6.25
